target-desc: SOS1 S5 (Homo sapiens), Q07889
method-summary: NMR
attribute-measured: Kd (µM)

1. GRB2 CSH3, P62993 (protein) QQPTYVQALFDFDPQEDGELGFRRGDFIHVMDNSDPNWWKGACHGQTGMFPRNYVTPVNR
2. GRB2 NSH3, P62993 (protein) MEAIAKYDFKATADDELSFKRGDILKVLNEECDQNWYKAELNGKDGFIPKNYIEMKPH
*Q* Given 1 and given 2 , which shows the smaller recorded Kd? Output the label that corresponds to your choice.
*A* 2

Data provenance is paper PMC11391413.
